Molecular target: MAP4K1 (HPK1) (Homo sapiens (Human))
Test: MAP4K1 (HPK1) biochemical enzymatic activity, electrophoretic mobility shift (EZReader 2), ATP at APPKM (26 μM)
Settings: class designation
quantity_measured: IC50

input_smiles | value_observed
CC1(Oc2ncc(C(C)(C)N)c3cc(Nc4ccc5c(n4)C4(CC4)C(C)(C)OC5=O)ncc23)CC1 | 0.31 to 1 nM
C[C@@H]1c2nc(Nc3cc4c([C@](C)(N)C5CC5)cnc(OC5(C)CC5)c4cn3)ccc2C(=O)OC1(C)C | < 0.3 nM
CC1(Oc2ncc(C(C)(C)N)c3cc(Nc4cnc5c(c4)C(=O)C(C)(C)OC5=O)ncc23)COC1 | < 0.3 nM
CNC(C)(C)c1cnc(OC)c2cnc(Nc3ccnc(C(C)(C)F)n3)cc12 | 1.1 to 10 nM

----------
Biological target: MAP4K1 (HPK1) (Homo sapiens (Human), UniProt Q92918)
Sequence (Q92918 whole entry): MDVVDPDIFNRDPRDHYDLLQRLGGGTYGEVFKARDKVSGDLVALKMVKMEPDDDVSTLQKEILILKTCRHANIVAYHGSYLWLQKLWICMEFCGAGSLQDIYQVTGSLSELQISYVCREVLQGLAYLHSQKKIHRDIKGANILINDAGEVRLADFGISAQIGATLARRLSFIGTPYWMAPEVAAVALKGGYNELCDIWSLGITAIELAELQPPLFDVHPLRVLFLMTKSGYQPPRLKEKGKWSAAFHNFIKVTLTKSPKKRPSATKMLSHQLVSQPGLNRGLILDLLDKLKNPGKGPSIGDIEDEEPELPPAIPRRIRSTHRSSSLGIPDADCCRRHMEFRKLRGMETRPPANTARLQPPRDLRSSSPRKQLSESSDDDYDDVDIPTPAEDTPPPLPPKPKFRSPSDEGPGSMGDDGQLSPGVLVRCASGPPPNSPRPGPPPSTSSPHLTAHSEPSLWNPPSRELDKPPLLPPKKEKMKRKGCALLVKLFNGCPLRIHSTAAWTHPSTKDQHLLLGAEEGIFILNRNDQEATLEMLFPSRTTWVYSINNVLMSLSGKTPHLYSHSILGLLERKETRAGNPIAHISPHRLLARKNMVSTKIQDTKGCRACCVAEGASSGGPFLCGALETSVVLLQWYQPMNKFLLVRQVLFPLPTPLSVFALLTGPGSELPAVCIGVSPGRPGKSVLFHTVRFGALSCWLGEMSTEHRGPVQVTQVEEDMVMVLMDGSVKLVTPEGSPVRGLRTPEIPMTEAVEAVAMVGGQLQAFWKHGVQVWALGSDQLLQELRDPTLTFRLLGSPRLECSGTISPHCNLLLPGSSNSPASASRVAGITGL
Experiment: MAP4K1 (HPK1) biochemical enzymatic activity, electrophoretic mobility shift (EZReader 2), ATP at APPKM (26 μM)
Conditions: class designation
pIC50: −log10 of the molar value.

compound | pIC50
CC[C@@](C)(N)c1cnc(OC2CC2)c2cnc(Nc3ccc4c(n3)C(C)(C)OC4=O)cc12 [Compound 110] | 9.00 to 9.51
CCOc1ncc(C(C)(C)N)c2cc(Nc3ccc4c(n3)C[C@H](C)OC4=O)ncc12 (single isomer, unassigned) [Compound 41] | 9.00 to 9.51
C[C@@H]1OC(=O)c2ccc(Nc3cc4c(C(C)(C)N)cnc(OCC(C)(F)F)c4cn3)nc2[C@H]1C [Compound 166] | > 9.52
C[C@@H]1c2nc(Nc3cc4c(C(C)(C)N)cnc(OC5CC5)c4cn3)ccc2C(=O)OC1(C)C [Compound 71] | > 9.52
CC[C@@](C)(N)c1cnc(OCC(F)(F)F)c2cnc(Nc3ccc4c(n3)[C@@H](C)[C@H](C)OC4=O)cc12 (single isomer, unassigned) [Compound 181] | > 9.52

----------
Target: MAP4K1 (HPK1) (Homo sapiens (Human))
Test: MAP4K1 (HPK1) biochemical enzymatic activity, electrophoretic mobility shift (EZReader 2), ATP at APPKM (26 μM)
Conditions: numeric value

input_smiles | experimental_system | unit_of_measurement | IC50
CC[C@@H](C)c1nc(Nc2cc3c(C(C)(C)N)cnc(OC)c3cn2)cnc1C#N | MAP4K1 (HPK1) (Homo sapiens (Human)) | nM | 0.85
COC[C@@](C)(N)c1cnc(OC)c2cnc(Nc3ccc4c(n3)[C@@H](C)[C@H](C)OC4=O)cc12 | MAP4K1 (HPK1) (Homo sapiens (Human)) | nM | 0.09
CCOc1ncc(C(C)(C)N)c2cc(Nc3ccc4c(n3)C(C)(C)OC4=O)ncc12 | MAP4K1 (HPK1) (Homo sapiens (Human)) | nM | 1.03
COc1ncc(C(C)(C)N)c2cc(Nc3ccc4c(n3)[C@@H](C)C(C)(C)OC4=O)ncc12 | MAP4K1 (HPK1) (Homo sapiens (Human)) | nM | 0.1

----------
Quick list: IC50 per entry.
Biological target: MAP4K1 (HPK1) (Homo sapiens (Human), UniProt Q92918)
Test: MAP4K1 (HPK1) biochemical enzymatic activity, electrophoretic mobility shift (EZReader 2), ATP at APPKM (26 μM)
Conditions: class designation
quantity_measured: IC50

compound | quantity_measured | value_observed
CC[C@@H](C)n1nc(Nc2cc3c(C(C)(C)N)cnc(OC)c3cn2)ccc1=O [Compound 15] | IC50 | 0.31 to 1 nM
C[C@@H]1c2nc(Nc3cc4c(C(C)(C)N)cnc(OC5(C)CC5)c4cn3)ccc2C(=O)OC1(C)C [Compound 83] | IC50 | < 0.3 nM
CC[C@H](F)c1nc(Nc2cc3c(C(C)(C)N)cnc(OC)c3cn2)cnc1C#N (single isomer, unassigned) [Compound 30] | IC50 | 1.1 to 10 nM
CCCOc1ncc([C@](C)(N)CC)c2cc(Nc3ccc4c(n3)[C@@H](C)[C@H](C)OC4=O)ncc12 [Compound 142] | IC50 | < 0.3 nM
COc1ncc(C(C)(C)N)c2cc(Nc3ccc4c(n3)CC(C)(C)OC4=O)ncc12 [Compound 36] | IC50 | < 0.3 nM
COc1ncc([C@@](C)(N)C2CC2)c2cc(Nc3ccc4c(n3)C(C)(C)OC4=O)ncc12 [Compound 98] | IC50 | > 10 nM
CCOc1ncc(C(C)(C)N)c2cc(Nc3ccnc(C(C)(C)F)n3)ncc12 [Compound 16] | IC50 | 1.1 to 10 nM
CC[C@](C)(N)c1cnc(OC2CC2)c2cnc(Nc3ccc4c(n3)CC(C)(C)OC4=O)cc12 [Compound 133] | IC50 | 1.1 to 10 nM
COc1ncc(C(C)(C)N)c2cc(Nc3cnc(C#N)c(C(C)C)n3)ncc12 [Compound 10] | IC50 | 1.1 to 10 nM
C[C@@H]1OC(=O)c2ccc(Nc3cc4c(C(C)(C)N)cnc(OC5CC5)c4cn3)nc2C1(C)C [Compound 137] | IC50 | 0.31 to 1 nM
CC[C@@H](N)c1ccc(OC)c2cnc(Nc3ccc4c(n3)C3(CC3)C(C)(C)OC4=O)cc12 (single isomer, unassigned) [Compound 207] | IC50 | < 0.3 nM
COc1ncc(C(C)(C)N)c2cc(Nc3ccc4c(n3)[C@@H](C)[C@@H](C)OC4=O)ncc12 (single isomer, unassigned) [Compound 39] | IC50 | 0.31 to 1 nM
CC[C@@](C)(N)c1cnc(OC2CC2)c2cnc(Nc3ccc4c(n3)C(C)(C)COC4=O)cc12 [Compound 136] | IC50 | 0.31 to 1 nM
COc1ncc([C@@](C)(N)C2CC2)c2cc(Nc3ccc4c(n3)[C@@H](C)C(C)(C)OC4=O)ncc12 [Compound 102] | IC50 | 1.1 to 10 nM
COc1ncc(C(C)(C)N)c2cc(Nc3ccnc(C(C)(C)F)n3)ncc12 [Compound 7] | IC50 | 0.31 to 1 nM

Source: patent US11534441B2
